# Study Target: T1, human CD3 on T-cell lines (CD3-expressing Jurkat cells; HUT78 cells) (human, UniProt P07766 23-207)
# T1 construct: On cells it stands in the CD3/TCR complex
# T1 sequence (P07766 23-207 limits assumed): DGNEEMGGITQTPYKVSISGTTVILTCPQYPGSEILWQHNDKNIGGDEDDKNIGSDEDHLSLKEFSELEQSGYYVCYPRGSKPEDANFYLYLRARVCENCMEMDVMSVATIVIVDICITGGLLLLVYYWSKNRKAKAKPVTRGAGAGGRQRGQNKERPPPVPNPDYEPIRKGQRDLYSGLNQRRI
# Method: flow cytometry, HUT78 cells
So basically: is Bmax (MFI) under 700 MFI? Then Yes. Not under? Then No.

Does this binder meet the criterion Bmax (MFI) < 700 MFI? 2037-B10_Hc-F29D (antibody, human IgG1, lambda, V domains shown, human IgG1, lambda; also called SRP 2037 F29D; 2037-B10_VH-F29D) VH: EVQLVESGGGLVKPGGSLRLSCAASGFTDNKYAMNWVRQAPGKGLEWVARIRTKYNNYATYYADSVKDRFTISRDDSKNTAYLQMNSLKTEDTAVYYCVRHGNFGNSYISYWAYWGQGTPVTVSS VL: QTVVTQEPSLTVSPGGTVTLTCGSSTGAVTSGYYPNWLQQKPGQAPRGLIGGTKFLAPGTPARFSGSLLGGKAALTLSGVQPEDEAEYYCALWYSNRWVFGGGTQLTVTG
No

Does this binder meet the criterion Bmax (MFI) < 700 MFI? 2037-B10_Hc-A59D (antibody, human IgG1, lambda, V domains shown, human IgG1, lambda; also called SRP 2037 A59D; 2037-B10_VH-A59D) VH: EVQLVESGGGLVKPGGSLRLSCAASGFTFNKYAMNWVRQAPGKGLEWVARIRTKYNNYDTYYADSVKDRFTISRDDSKNTAYLQMNSLKTEDTAVYYCVRHGNFGNSYISYWAYWGQGTPVTVSS VL: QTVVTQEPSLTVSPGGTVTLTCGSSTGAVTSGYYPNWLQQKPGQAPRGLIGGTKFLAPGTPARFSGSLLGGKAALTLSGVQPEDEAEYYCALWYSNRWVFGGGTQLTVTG
No

Does this binder meet the criterion Bmax (MFI) < 700 MFI? 2037-B10_Hc-G105D (antibody, human IgG1, lambda, V domains shown, human IgG1, lambda; also called SRP 2037 G105D; 2037-B10_VH-G105D) VH: EVQLVESGGGLVKPGGSLRLSCAASGFTFNKYAMNWVRQAPGKGLEWVARIRTKYNNYATYYADSVKDRFTISRDDSKNTAYLQMNSLKTEDTAVYYCVRHGNFDNSYISYWAYWGQGTPVTVSS VL: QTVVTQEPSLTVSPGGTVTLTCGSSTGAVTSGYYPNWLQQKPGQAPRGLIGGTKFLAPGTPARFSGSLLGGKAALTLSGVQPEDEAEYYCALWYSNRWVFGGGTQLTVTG
No

Does this binder meet the criterion Bmax (MFI) < 700 MFI? 2037-B10_Hc-N30D (antibody, human IgG1, lambda, V domains shown, human IgG1, lambda; also called SRP 2037 N30D; 2037-B10_VH-N30D) VH: EVQLVESGGGLVKPGGSLRLSCAASGFTFDKYAMNWVRQAPGKGLEWVARIRTKYNNYATYYADSVKDRFTISRDDSKNTAYLQMNSLKTEDTAVYYCVRHGNFGNSYISYWAYWGQGTPVTVSS VL: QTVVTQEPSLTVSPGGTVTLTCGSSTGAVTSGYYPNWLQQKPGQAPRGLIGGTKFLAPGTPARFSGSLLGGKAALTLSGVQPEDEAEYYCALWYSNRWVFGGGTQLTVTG
No

Does this binder meet the criterion Bmax (MFI) < 700 MFI? 2037-B10_Hc-N103D (antibody, human IgG1, lambda, V domains shown, human IgG1, lambda; also called SRP 2037 N103D; 2037-B10_VH-N103D) VH: EVQLVESGGGLVKPGGSLRLSCAASGFTFNKYAMNWVRQAPGKGLEWVARIRTKYNNYATYYADSVKDRFTISRDDSKNTAYLQMNSLKTEDTAVYYCVRHGDFGNSYISYWAYWGQGTPVTVSS VL: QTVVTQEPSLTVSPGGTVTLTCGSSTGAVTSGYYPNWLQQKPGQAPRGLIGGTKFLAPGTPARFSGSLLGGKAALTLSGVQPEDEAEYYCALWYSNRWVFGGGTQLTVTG
Yes

Does this binder meet the criterion Bmax (MFI) < 700 MFI? 2037-B10_Hc-Y108D (antibody, human IgG1, lambda, V domains shown, human IgG1, lambda; also called 2037-B10_VH-Y108D) VH: EVQLVESGGGLVKPGGSLRLSCAASGFTFNKYAMNWVRQAPGKGLEWVARIRTKYNNYATYYADSVKDRFTISRDDSKNTAYLQMNSLKTEDTAVYYCVRHGNFGNSDISYWAYWGQGTPVTVSS VL: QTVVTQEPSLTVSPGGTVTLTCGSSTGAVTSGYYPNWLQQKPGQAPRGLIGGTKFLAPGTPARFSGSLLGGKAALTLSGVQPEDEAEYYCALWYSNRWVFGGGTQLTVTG
No

Does this binder meet the criterion Bmax (MFI) < 700 MFI? 2037-B10_Hc-F104D (antibody, human IgG1, lambda, V domains shown, human IgG1, lambda; also called SRP 2037 F104D; 2037-B10_VH-F104D) VH: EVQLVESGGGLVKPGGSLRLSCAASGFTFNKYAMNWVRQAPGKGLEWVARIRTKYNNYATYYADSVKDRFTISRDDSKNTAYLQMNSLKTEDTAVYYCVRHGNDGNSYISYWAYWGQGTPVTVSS VL: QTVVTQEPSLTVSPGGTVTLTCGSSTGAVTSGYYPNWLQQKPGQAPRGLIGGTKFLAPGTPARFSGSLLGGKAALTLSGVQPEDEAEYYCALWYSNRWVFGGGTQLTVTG
Yes

Does this binder meet the criterion Bmax (MFI) < 700 MFI? 2037-B10_Hc-N106D (antibody, human IgG1, lambda, V domains shown, human IgG1, lambda; also called SRP 2037 N106D; 2037-B10_VH-N106D) VH: EVQLVESGGGLVKPGGSLRLSCAASGFTFNKYAMNWVRQAPGKGLEWVARIRTKYNNYATYYADSVKDRFTISRDDSKNTAYLQMNSLKTEDTAVYYCVRHGNFGDSYISYWAYWGQGTPVTVSS VL: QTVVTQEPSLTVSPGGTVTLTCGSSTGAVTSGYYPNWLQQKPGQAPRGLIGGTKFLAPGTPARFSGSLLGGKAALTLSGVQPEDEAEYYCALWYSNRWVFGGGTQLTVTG
No

Does this binder meet the criterion Bmax (MFI) < 700 MFI? 2037-B10_Hc-R50D (antibody, human IgG1, lambda, V domains shown, human IgG1, lambda; also called SRP 2037 R50D; 2037-B10_VH-R50D) VH: EVQLVESGGGLVKPGGSLRLSCAASGFTFNKYAMNWVRQAPGKGLEWVADIRTKYNNYATYYADSVKDRFTISRDDSKNTAYLQMNSLKTEDTAVYYCVRHGNFGNSYISYWAYWGQGTPVTVSS VL: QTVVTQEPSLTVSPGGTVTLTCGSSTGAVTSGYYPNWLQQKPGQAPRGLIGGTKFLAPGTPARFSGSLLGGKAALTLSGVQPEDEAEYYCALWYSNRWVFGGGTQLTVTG
Yes

Values from patent US20240124585A1
